test system: Escherichia coli TOP10; experiment: shrunken log2 fold change of peptide-encoding DNA abundance (4.5 h post-induction vs induction); higher = less antimicrobial activity (less host growth inhibition); conditions: time post-induction: 4.5 h; library: site-saturation at positions 5, 18, 19, 20
Measurement Name: shrunken log2 fold change

Escherichia coli TOP10 data for RRIRNRPPRLPRPRPRPEWRPRP ; its shrunken log2 fold change: 0.404

Escherichia coli TOP10 data for RRIRARPPRLPRPRPRPPLVPRP ; its shrunken log2 fold change: 0.626

Escherichia coli TOP10 data for RRIRCRPPRLPRPRPRPKEWPRP ; its shrunken log2 fold change: 0.0878

Escherichia coli TOP10 data for RRIRCRPPRLPRPRPRPWVCPRP ; its shrunken log2 fold change: 0.0107

Escherichia coli TOP10 data for RRIRNRPPRLPRPRPRPKTDPRP ; its shrunken log2 fold change: -0.206

Escherichia coli TOP10 data for RRIRHRPPRLPRPRPRPDNDPRP ; its shrunken log2 fold change: 0.00849

Escherichia coli TOP10 data for RRIRLRPPRLPRPRPRPNQNPRP ; its shrunken log2 fold change: -0.276

Escherichia coli TOP10 data for RRIRVRPPRLPRPRPRPYPMPRP ; its shrunken log2 fold change: -0.299

Escherichia coli TOP10 data for RRIRYRPPRLPRPRPRPCVWPRP ; its shrunken log2 fold change: -0.0563

Escherichia coli TOP10 data for RRIRGRPPRLPRPRPRPMYEPRP ; its shrunken log2 fold change: 0.282

Escherichia coli TOP10 data for RRIRVRPPRLPRPRPRPTCRPRP ; its shrunken log2 fold change: 0.147

Escherichia coli TOP10 data for RRIRNRPPRLPRPRPRPPNTPRP ; its shrunken log2 fold change: -0.0466

Escherichia coli TOP10 data for RRIRERPPRLPRPRPRPEKRPRP ; its shrunken log2 fold change: -0.0657

Escherichia coli TOP10 data for RRIRERPPRLPRPRPRPFWKPRP ; its shrunken log2 fold change: -0.125

Escherichia coli TOP10 data for RRIRIRPPRLPRPRPRPNMNPRP ; its shrunken log2 fold change: -0.773

###

tested on: Escherichia coli TOP10; assay: shrunken log2 fold change of peptide-encoding DNA abundance (4.5 h post-induction vs induction); higher = less antimicrobial activity (less host growth inhibition); conditions: time post-induction: 4.5 h; library: site-saturation at positions 5, 18, 19, 20
So I've got a bunch of sequences here, and I need their shrunken log2 fold change values.

// field: shrunken log2 fold change; key: RRIRTRPPRLPRPRPRPWLFPRP ; value = 0.212

// field: shrunken log2 fold change; key: RRIRHRPPRLPRPRPRPHASPRP ; value = 0.00288

// field: shrunken log2 fold change; key: RRIRHRPPRLPRPRPRPIYTPRP ; value = -1.35

// field: shrunken log2 fold change; key: RRIRNRPPRLPRPRPRPKPKPRP ; value = 0.211

// field: shrunken log2 fold change; key: RRIRERPPRLPRPRPRPDEQPRP ; value = -0.00815

// field: shrunken log2 fold change; key: RRIRSRPPRLPRPRPRPAEWPRP ; value = 1.02

// field: shrunken log2 fold change; key: RRIRDRPPRLPRPRPRPYSVPRP ; value = -0.0716

// field: shrunken log2 fold change; key: RRIRRRPPRLPRPRPRPGRDPRP ; value = 0.717

###

test system: Escherichia coli TOP10; assay: shrunken log2 fold change of peptide-encoding DNA abundance (4.5 h post-induction vs induction); higher = less antimicrobial activity (less host growth inhibition); conditions: time post-induction: 4.5 h; library: site-saturation at positions 5, 18, 19, 20;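 also: peptides expressed intracellularly from a pBAD plasmid library in pooled LB shake-flask culture, induced with 0.3% L-arabinose, DNA abundance read by NGS, three biological replicates, DESeq2 with apeglm shrinkage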
So I've got a bunch of sequences here, and I need their shrunken log2 fold change values.

// field: shrunken log2 fold change; key: RRIRVRPPRLPRPRPRPAKNPRP ; value = 0.153

// field: shrunken log2 fold change; key: RRIRRRPPRLPRPRPRPVFTPRP ; value = 0.188

// field: shrunken log2 fold change; key: RRIRKRPPRLPRPRPRPYVTPRP ; value = -0.401

// field: shrunken log2 fold change; key: RRIRRRPPRLPRPRPRPWEKPRP ; value = 0.0936

// field: shrunken log2 fold change; key: RRIRNRPPRLPRPRPRPRIVPRP ; value = -0.191

// field: shrunken log2 fold change; key: RRIRVRPPRLPRPRPRPEQKPRP ; value = -0.0196

// field: shrunken log2 fold change; key: RRIRSRPPRLPRPRPRPVRWPRP ; value = 0.893

// field: shrunken log2 fold change; key: RRIRVRPPRLPRPRPRPLYWPRP ; value = -0.329

// field: shrunken log2 fold change; key: RRIRYRPPRLPRPRPRPYHYPRP ; value = -0.556

// field: shrunken log2 fold change; key: RRIRVRPPRLPRPRPRPAYDPRP ; value = -0.565

// field: shrunken log2 fold change; key: RRIRARPPRLPRPRPRPICMPRP ; value = 0.055

// field: shrunken log2 fold change; key: RRIRWRPPRLPRPRPRPDWCPRP ; value = 0.112

// field: shrunken log2 fold change; key: RRIRWRPPRLPRPRPRPHTYPRP ; value = -0.578

// field: shrunken log2 fold change; key: RRIRSRPPRLPRPRPRPNQWPRP ; value = 0.0342

// field: shrunken log2 fold change; key: RRIRHRPPRLPRPRPRPLVNPRP ; value = -0.117

// field: shrunken log2 fold change; key: RRIRRRPPRLPRPRPRPKPSPRP ; value = 0.294

// field: shrunken log2 fold change; key: RRIRDRPPRLPRPRPRPRMNPRP ; value = -0.168

// field: shrunken log2 fold change; key: RRIRGRPPRLPRPRPRPQMKPRP ; value = 0.29

// field: shrunken log2 fold change; key: RRIRDRPPRLPRPRPRPHLMPRP ; value = -0.283

// field: shrunken log2 fold change; key: RRIRFRPPRLPRPRPRPHPMPRP ; value = -0.367

// field: shrunken log2 fold change; key: RRIRGRPPRLPRPRPRPEIYPRP ; value = 0.26

// field: shrunken log2 fold change; key: RRIRTRPPRLPRPRPRPFVGPRP ; value = -0.035

// field: shrunken log2 fold change; key: RRIRGRPPRLPRPRPRPACVPRP ; value = 0.81

// field: shrunken log2 fold change; key: RRIRFRPPRLPRPRPRPRTWPRP ; value = 0.544

// field: shrunken log2 fold change; key: RRIRERPPRLPRPRPRPVRIPRP ; value = -0.0343

// field: shrunken log2 fold change; key: RRIRRRPPRLPRPRPRPIDCPRP ; value = 0.00203

// field: shrunken log2 fold change; key: RRIRQRPPRLPRPRPRPPIRPRP ; value = -0.0146

// field: shrunken log2 fold change; key: RRIRLRPPRLPRPRPRPASSPRP ; value = -0.0827

// field: shrunken log2 fold change; key: RRIRSRPPRLPRPRPRPFALPRP ; value = -0.0971

// field: shrunken log2 fold change; key: RRIRFRPPRLPRPRPRPLGHPRP ; value = -0.0599

// field: shrunken log2 fold change; key: RRIRMRPPRLPRPRPRPWTVPRP ; value = -0.248

// field: shrunken log2 fold change; key: RRIRRRPPRLPRPRPRPEYIPRP ; value = -0.199
